The origin of these recorded values is PubChem BioAssay (EPA / NIEHS).

- Measurement Notes: APR_HepG2_MitoMembPot_72hr: Apredica 72-hour HepG2 Assay for Mitochondrial Membrane Potential (AID 2282917)
- Particulars: imaging, actives raise or lower the signal
Active and inactive are the calls of the source. The calls were made as follows: active = hit-call score of the fitted dose curve at least 0.9, where 1 is the maximum; inactive = score below 0.9.
Outcome codes: 1.0 (active), 0.0 (inactive)

compound=Nc1nc(Cl)nc2c1ncn2[C@H]1C[C@H](O)[C@@H](CO)O1 category_label=0.0
compound="Cc1c(C)c2c(c(C)c1O)CCC(C)(COc1ccc(CC3SC(=O)NC3=O)cc1)O2 (stereo unspecified)" category_label=1.0
compound=CC1=C(C)S(=O)(=O)CCS1(=O)=O category_label=0.0
compound=Nc1nc(=S)c2[nH]cnc2[nH]1 category_label=0.0
compound=O=C(O)c1cccnc1 category_label=0.0
compound=Cc1ccc(-c2cc(C(F)(F)F)nn2-c2ccc(S(N)(=O)=O)cc2)cc1 category_label=0.0
compound="CC(=O)OC1CC(C)OC(C)O1 (stereo unspecified)" category_label=0.0
compound=CC(C)COC(=O)CCCCC(=O)OCC(C)C category_label=0.0
compound="CCCCC(CC)CO (stereo unspecified)" category_label=0.0
compound=CCCC(=O)O category_label=0.0
compound=O=[Si]=O category_label=0.0
compound="CC(=O)CC(c1ccccc1)c1c(O)c2ccccc2oc1=O (stereo unspecified)" category_label=0.0
compound=OCC(O)CO category_label=0.0
compound=O=C1NC(=O)C(c2ccccc2)(c2ccccc2)N1 category_label=0.0
compound="C#CC(O)C(CC)CCCC (stereo unspecified)" category_label=0.0
compound=O=C(NS(=O)(=O)/C=C/c1cccs1)c1ccc(F)cc1Br category_label=0.0
compound=O=C1CCCCC1 category_label=0.0
compound=CN(C)C(=O)NC1(c2ccccc2)CCN(CCC[C@]2(c3ccc(Cl)c(Cl)c3)CCCN(C(=O)c3ccccc3)C2)CC1 category_label=1.0
compound=CS(=O)(=O)c1ccc([C@@H](C[C@H]2CCC(=O)C2)C(=O)Nc2cnccn2)cc1Cl category_label=0.0
compound="CCCCCCC(CCCCCCCCCCC(=O)OCC(COC(C)=O)OC(C)=O)OC(C)=O (stereo unspecified)" category_label=0.0
compound="CC(C)NCC(O)c1ccc(O)c(O)c1 (stereo unspecified)" category_label=0.0
compound=Cc1cn([C@H]2C=C[C@@H](CO)O2)c(=O)[nH]c1=O category_label=0.0
compound=O=NO category_label=0.0
compound=COC(=O)[C@H]1[C@H]2C[C@@H]3c4[nH]c5cc(OC)ccc5c4CCN3C[C@H]2C[C@@H](OC(=O)c2cc(OC)c(OC)c(OC)c2)[C@@H]1OC category_label=1.0
compound=O=C(N[C@@H](c1ccccc1)[C@@H]1CCCCN1)c1cccc(C(F)(F)F)c1Cl category_label=0.0
compound=O=C(O)CC(O)(CC(=O)O)C(=O)O category_label=0.0

----------
- Tested Target: Retinoic acid receptor RXR-alpha (Homo sapiens) (UniProt P19793)
- Sequence (P19793 whole entry, looked up): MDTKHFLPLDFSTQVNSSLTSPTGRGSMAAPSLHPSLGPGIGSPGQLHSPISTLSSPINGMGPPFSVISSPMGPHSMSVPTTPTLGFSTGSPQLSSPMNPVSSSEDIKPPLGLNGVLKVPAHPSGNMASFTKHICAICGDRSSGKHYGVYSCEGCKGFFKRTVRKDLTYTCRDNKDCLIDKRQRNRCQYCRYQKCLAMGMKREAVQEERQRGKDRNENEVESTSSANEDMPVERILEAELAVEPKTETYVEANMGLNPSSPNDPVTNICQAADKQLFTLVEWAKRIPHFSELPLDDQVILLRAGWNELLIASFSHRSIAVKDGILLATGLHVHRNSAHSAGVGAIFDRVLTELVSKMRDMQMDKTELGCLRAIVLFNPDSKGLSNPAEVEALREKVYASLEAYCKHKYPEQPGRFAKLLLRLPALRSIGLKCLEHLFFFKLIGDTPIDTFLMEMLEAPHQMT
- Measurement Notes: OT_NURR1_NURR1RXRa_0480: Odyssey Thera (OT) 8-hour HEK293T Protein Complementation Assay for Nurr1/retinoid X receptor (RXR) (AID 2283385)
Inconclusive results are not listed. Activity calls are given as the source filed them. How the source made its calls: active means hit-call score of the fitted dose curve at least 0.9, where 1 is the maximum; inconclusive means response in the unintended direction; inactive means score below 0.9.
Outcomes: active, inactive

compound="CCCCC(CC)CO (configuration not stated)" category_label=inactive
compound=Oc1ccc(O)cc1 category_label=inactive
compound=CCCCc1nc2cccnc2n1Cc1ccc(-c2ccccc2-c2nnn[nH]2)cc1 category_label=active
compound=N[C@@H](Cc1c[nH]c2ccccc12)C(=O)O category_label=inactive
compound=C/C=C/c1ccc(OC)cc1 category_label=inactive
compound=CC(C)OC(=O)C(C)(C)Oc1ccc(C(=O)c2ccc(Cl)cc2)cc1 category_label=inactive
compound=CCOCCOCCO category_label=inactive

----------
- Read-out: NAD(P)H dehydrogenase [quinone] 1 (NQO1), NQO1 (gene 1728)
- Measurement Notes: LTEA_HepaRG_NQO1: Life Technologies and Expression Analysis (LTEA) Assay for NAD(P)H dehydrogenase [quinone] 1 (NQO1) using HepaRG (AID 2283526)
- Particulars: mRNA level, 48 h; actives raise or lower the signal
Calls of active or inactive are those of the source. The calls were made as follows: active = hit-call score of the fitted dose curve at least 0.9, where 1 is the maximum; inactive = score below 0.9.
Outcome codes: active, inactive

molecule="CCCCCCC(CCCCCCCCCCC(=O)OCC(COC(C)=O)OC(C)=O)OC(C)=O (stereo not given)" category_label=inactive
molecule=CCCC[C@H]1CN(CC2CCOCC2)C(=O)OC12CCN(C1(C)CCN(C(=O)c3c(C)ncnc3C)CC1)CC2 category_label=inactive
molecule=CCN(CC)CCOc1ccc(C(=C(Cl)c2ccccc2)c2ccccc2)cc1 category_label=inactive
molecule=CC(C)c1cccc(C(C)C)c1NC(=O)NS(=O)(=O)c1cc(C(C)(C)O)co1 category_label=inactive
molecule=NC1CCCCC1 category_label=inactive
molecule=COc1ccc(C(=O)Nc2nc3ccccc3c(NCc3ccccc3)c2C#N)cc1 category_label=inactive
molecule=O=C(O)c1[nH]n(-c2ccc(S(=O)(=O)O)cc2)c(=O)c1N=Nc1ccc(S(=O)(=O)O)cc1 category_label=inactive
molecule=COc1ccc(OC(F)(F)F)cc1CN[C@H]1CCCN[C@H]1c1ccccc1 category_label=inactive
molecule=Cc1ccc(-c2cc(C(F)(F)F)nn2-c2ccc(S(N)(=O)=O)cc2)cc1 category_label=inactive
molecule=COC(=O)CCC(=O)OC category_label=inactive
molecule=O=C(Oc1ccccc1)c1cccc(C(=O)Oc2ccccc2)c1 category_label=inactive
molecule=CCCCOC(=O)CCCCC(=O)OCCCC category_label=inactive
molecule=O=C(O)c1cccnc1 category_label=inactive
molecule=CN(C)C(=O)NC1(c2ccccc2)CCN(CCC[C@]2(c3ccc(Cl)c(Cl)c3)CCCN(C(=O)c3ccccc3)C2)CC1 category_label=active
molecule=OCC(CO)n1cnc(-c2ccc(F)cc2)c1-c1ccnc(Oc2ccccc2)n1 category_label=inactive
molecule=CCCCCCCCCC[N+](C)(C)[O-] category_label=inactive
molecule=CCCCCCCCCCCCCCCCO category_label=inactive
molecule=N[C@@H](Cc1c[nH]c2ccccc12)C(=O)O category_label=inactive
molecule=CC(C)c1cccc(C(C)C)c1 category_label=inactive
molecule=CC(=O)S[C@H](C(=O)N[C@H]1Cc2ccccc2[C@H]2CCC[C@@H](C(=O)O)N2C1=O)C(C)C category_label=inactive
molecule=CCOCCOCCO category_label=inactive
molecule=Cc1ccc(C(C)(C)C)c(O)c1 category_label=inactive
molecule=CCCCc1nc2cccnc2n1Cc1ccc(-c2ccccc2-c2nnn[nH]2)cc1 category_label=inactive
molecule=Cc1cn([C@H]2C=C[C@@H](CO)O2)c(=O)[nH]c1=O category_label=inactive
molecule="CC(COCC(C)OC(=O)c1ccccc1)OC(=O)c1ccccc1 (stereo not given)" category_label=inactive

----------
- Tested Target: rat Neurokinin-1 Receptor (NK1), Tacr1 (gene 24807) (UniProt P14600)
- Sequence (P14600 whole entry, looked up): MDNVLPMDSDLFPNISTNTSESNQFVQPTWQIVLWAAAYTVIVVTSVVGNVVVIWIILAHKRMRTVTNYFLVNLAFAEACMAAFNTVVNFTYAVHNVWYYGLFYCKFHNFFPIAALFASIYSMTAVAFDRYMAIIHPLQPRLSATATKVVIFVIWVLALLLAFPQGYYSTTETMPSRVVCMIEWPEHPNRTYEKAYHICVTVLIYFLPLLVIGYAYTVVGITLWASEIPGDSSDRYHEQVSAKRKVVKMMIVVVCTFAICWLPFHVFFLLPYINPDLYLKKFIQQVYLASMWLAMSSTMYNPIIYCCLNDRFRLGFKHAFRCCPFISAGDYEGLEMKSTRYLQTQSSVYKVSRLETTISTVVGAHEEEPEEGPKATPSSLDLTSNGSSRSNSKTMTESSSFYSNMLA
- Measurement Notes: NVS_GPCR_rNK1: NovaScreen (NVS) G Protein-Coupled Receptor Assay for rat Neurokinin-1 Receptor (NK1) (AID 2283309)
Inconclusive results are not listed. The source made the active and inactive calls. Rule for the calls: active = hit-call score of the fitted dose curve at least 0.9, where 1 is the maximum; inconclusive = response in the unintended direction; inactive = score below 0.9.
Possible outcomes: true = active, false = inactive

smiles_repr=NC=O tested_target="rat Neurokinin-1 Receptor (NK1), Tacr1 (gene 24807) (UniProt P14600)" category_label=false
smiles_repr=CN(C)CCCN1c2ccccc2Sc2ccc(Cl)cc21 tested_target="rat Neurokinin-1 Receptor (NK1), Tacr1 (gene 24807) (UniProt P14600)" category_label=true
smiles_repr=CCN(CC)CCOc1ccc(C(=C(Cl)c2ccccc2)c2ccccc2)cc1 tested_target="rat Neurokinin-1 Receptor (NK1), Tacr1 (gene 24807) (UniProt P14600)" category_label=true
smiles_repr=CN(C)C(=O)NC1(c2ccccc2)CCN(CC[C@@]2(c3ccc(F)c(F)c3)CN(C(=O)c3ccccc3)CCO2)CC1 tested_target="rat Neurokinin-1 Receptor (NK1), Tacr1 (gene 24807) (UniProt P14600)" category_label=false
smiles_repr=CCCCc1nc2cccnc2n1Cc1ccc(-c2ccccc2-c2nnn[nH]2)cc1 tested_target="rat Neurokinin-1 Receptor (NK1), Tacr1 (gene 24807) (UniProt P14600)" category_label=false

----------
- Tested Target: Estrogen receptor beta (Homo sapiens)
- Measurement Notes: OT_ER_ERbERb_0480: Odyssey Thera (OT) 8-hour HEK293T Protein-Complementation Assay for Estrogen Receptor-beta/-beta Homodimer (AID 2283357);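 also: active means signal gain over DMSO baseline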
Results filed as inconclusive are left out. Active and inactive are the calls of the source. The calls were made as follows: active = hit-call score of the fitted dose curve at least 0.9, where 1 is the maximum; inconclusive = response in the unintended direction; inactive = score below 0.9.
Classes used: 1.0 (active), 0.0 (inactive)

compound="CC(C)NCC(O)c1ccc(O)c(O)c1 (stereo not drawn)" category_label=0.0
compound="CCCCC(CC)COC(=O)CCCCCCCC(=O)OCC(CC)CCCC (stereo not drawn)" category_label=0.0
compound=CCCCCCCCCCCCCCOS(=O)(=O)O category_label=0.0
compound=C=CCCCCCCCCCCCC category_label=0.0
compound=CC(C)OC(=O)C(C)(C)Oc1ccc(C(=O)c2ccc(Cl)cc2)cc1 category_label=0.0
compound=CS(=O)(=O)c1ccc([C@@H](C[C@H]2CCC(=O)C2)C(=O)Nc2cnccn2)cc1Cl category_label=0.0
compound=CN(C)CCCN(C)CCCN(C)C category_label=0.0
compound=O=[Si]=O category_label=0.0
compound=OCC(CO)n1cnc(-c2ccc(F)cc2)c1-c1ccnc(Oc2ccccc2)n1 category_label=0.0
compound=CC(N)=O category_label=0.0
compound=CC(=O)[C@@]1(O)CC[C@H]2[C@@H]3CCC4=CC(=O)CC[C@]4(C)[C@H]3CC[C@@]21C category_label=0.0
compound=NC(=Nc1ccccc1)Nc1ccccc1 category_label=0.0
compound=Nc1nc(=S)c2[nH]cnc2[nH]1 category_label=0.0
compound=Cc1cc(Cc2ccc(N)c(C)c2)ccc1N category_label=1.0
compound=CCc1nc(N)nc(N)c1-c1ccc(Cl)cc1 category_label=0.0
compound=CCCCCCCC(=O)OC category_label=0.0
compound=CCCCCCC(C=O)=Cc1ccccc1 category_label=0.0
compound=O=C(Oc1ccccc1)c1cccc(C(=O)Oc2ccccc2)c1 category_label=0.0
compound="CCCCC(CC)CO (stereo not drawn)" category_label=0.0
compound=O=C1OC(c2ccc(O)cc2)(c2ccc(O)cc2)c2ccccc21 category_label=1.0
compound=C=CCc1ccc(OC)c(OC)c1 category_label=0.0
compound=CC(=O)OCC(COC(C)=O)OC(C)=O category_label=0.0
compound=Oc1ccc(O)cc1 category_label=0.0
compound="CCCCCCC(CCCCCCCCCCC(=O)OCC(COC(C)=O)OC(C)=O)OC(C)=O (stereo not drawn)" category_label=0.0
compound=Cc1ccc(C(C)(C)C)c(O)c1 category_label=1.0
compound="CC(=O)OC1CC(C)OC(C)O1 (stereo not drawn)" category_label=0.0
compound="CC(COCC(C)OC(=O)c1ccccc1)OC(=O)c1ccccc1 (stereo not drawn)" category_label=0.0
compound=CCCCCCCCCC[N+](C)(C)[O-] category_label=0.0
